Tested on: Microglia
Test: Neuroprotective activity against 30 uM Oxaliplatin-induced neurotoxicity in Sprague-Dawley rat microglia assessed as cell viability at 10 uM incubated fro 24 hrs by MTT assay (reference value: 19.1 +/- 0.8%)
Type: functional
Activity of 20% or higher: Yes. Under 20%: No.

Molecule: N#CCOc1ccc(-c2cn3c(=O)n(-c4ccccc4)nc3c(N)n2)cc1
Measurement Target: Microglia
Cat: Yes

Molecule: Nc1nc(-c2ccc(OCCNC(=O)CCCCC3CCSS3)cc2)cn2c(=O)n(-c3ccccc3)nc12 (stereo not given)
Measurement Target: Microglia
Cat: Yes

Molecule: CC(C)(C)c1cc(-c2cn3c(=O)n(-c4ccccc4)nc3c(N)n2)ccc1O
Measurement Target: Microglia
Cat: Yes

Molecule: Nc1nc(-c2ccc(NC(=O)CCNC(=O)CCCCC3CCSS3)cc2)cn2c(=O)n(-c3ccccc3)nc12 (stereo not given)
Measurement Target: Microglia
Cat: No

Molecule: CC(C)(C)c1cc(C(=O)NCCC(=O)Nc2ccc(-c3cn4c(=O)n(-c5ccccc5)nc4c(N)n3)cc2)cc(C(C)(C)C)c1O
Measurement Target: Microglia
Cat: Yes

----------
Assay: Half life in human plasma
Format: ADME, cell-free

Compound: N#CCOc1ccc(-c2cn3c(=O)n(-c4ccccc4)nc3c(N)n2)cc1
Unit Symbol: h
Qualifier Operator: ≥
half-life: 4

Compound: Nc1nc(-c2ccc(OCCNC(=O)CCCCC3CCSS3)cc2)cn2c(=O)n(-c3ccccc3)nc12 (stereo not given)
Unit Symbol: h
Qualifier Operator: ≥
half-life: 4

Compound: CC(C)(C)c1cc(-c2cn3c(=O)n(-c4ccccc4)nc3c(N)n2)ccc1O
Unit Symbol: h
Qualifier Operator: =
half-life: 2.03

Compound: CC(C)(C)c1cc(C(=O)NCCC(=O)Nc2ccc(-c3cn4c(=O)n(-c5ccccc5)nc4c(N)n3)cc2)cc(C(C)(C)C)c1O
Unit Symbol: h
Qualifier Operator: ≥
half-life: 4

Compound: Nc1nc(-c2ccc(NC(=O)CCNC(=O)CCCCC3CCSS3)cc2)cn2c(=O)n(-c3ccccc3)nc12 (stereo not given)
Unit Symbol: h
Qualifier Operator: =
half-life: 0.683

----------
Target: Adenosine receptor A2a (Rattus norvegicus, UniProt P30543)
Sequence (P30543 whole entry): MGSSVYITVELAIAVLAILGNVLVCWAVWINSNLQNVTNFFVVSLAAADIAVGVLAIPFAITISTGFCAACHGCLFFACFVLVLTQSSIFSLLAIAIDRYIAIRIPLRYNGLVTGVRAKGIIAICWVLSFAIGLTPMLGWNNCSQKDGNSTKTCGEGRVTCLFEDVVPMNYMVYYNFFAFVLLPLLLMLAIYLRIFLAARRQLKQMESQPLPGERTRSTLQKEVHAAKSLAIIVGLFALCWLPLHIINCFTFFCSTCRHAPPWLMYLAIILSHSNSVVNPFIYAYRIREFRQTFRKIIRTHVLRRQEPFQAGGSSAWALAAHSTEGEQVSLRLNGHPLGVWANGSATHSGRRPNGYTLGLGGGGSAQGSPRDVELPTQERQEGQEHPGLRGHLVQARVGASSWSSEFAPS
pKi: −log10 of the molar value.

Structure Smiles: N#CCOc1ccc(-c2cn3c(=O)n(-c4ccccc4)nc3c(N)n2)cc1
Measurement Target: Adenosine receptor A2a (Rattus norvegicus, UniProt P30543)
pKi: 7.41

----------
Target: UniProt:P0DMS8
We label by threshold. Values of Ki strictly beneath 0.6 µM are condition met. Values of 0.6 µM and up are condition not met.

Compound: COc1c(C(C)(C)C)cc(-c2cn3c(=O)n(-c4ccccc4)nc3c(N)n2)cc1C(C)(C)C
Cat: condition not met

Compound: COc1ccc(-c2cn3c(=O)n(-c4ccccc4)nc3c(N)n2)cc1OC
Cat: condition met

Compound: COc1cc(-c2cn3c(=O)n(-c4ccccc4)nc3c(N)n2)cc(OC)c1OC
Cat: condition met

Compound: NCCOc1ccc(-c2cn3c(=O)n(-c4ccccc4)nc3c(N)n2)cc1
Cat: condition not met

Compound: Nc1nc(-c2cc(O)c(O)c(O)c2)cn2c(=O)n(-c3ccccc3)nc12
Cat: condition not met

Compound: NCCC(=O)Nc1ccc(-c2cn3c(=O)n(-c4ccccc4)nc3c(N)n2)cc1
Cat: condition met

Compound: Nc1nc(-c2ccc(NC(=O)CCNC(=O)CCCCC3CCSS3)cc2)cn2c(=O)n(-c3ccccc3)nc12 (centres undefined)
Cat: condition not met

Compound: Nc1nc(-c2ccc(NC(=O)CCCCC3CCSS3)cc2)cn2c(=O)n(-c3ccccc3)nc12 (centres undefined)
Cat: condition not met

----------
Target: Adenosine receptor A2a (Homo sapiens, UniProt P29274)
Sequence (P29274 whole entry): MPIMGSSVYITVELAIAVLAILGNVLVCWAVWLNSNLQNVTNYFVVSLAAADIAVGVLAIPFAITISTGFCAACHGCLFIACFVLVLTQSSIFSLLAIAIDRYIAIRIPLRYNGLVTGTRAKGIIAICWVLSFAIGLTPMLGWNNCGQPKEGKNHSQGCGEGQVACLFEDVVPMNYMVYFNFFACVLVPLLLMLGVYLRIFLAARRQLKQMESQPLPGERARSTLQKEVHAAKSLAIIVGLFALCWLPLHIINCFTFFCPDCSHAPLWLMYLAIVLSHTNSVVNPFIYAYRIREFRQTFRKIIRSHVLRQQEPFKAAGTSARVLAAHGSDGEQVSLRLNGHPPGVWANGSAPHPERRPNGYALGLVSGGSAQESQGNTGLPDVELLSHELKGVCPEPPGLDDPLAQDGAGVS
Measured Attribute: Ki (nM)

Structure Smiles: COc1cc(-c2cn3c(=O)n(-c4ccccc4)nc3c(N)n2)cc(OC)c1OC
Measured Attribute: Ki
Measured Number: 3.5
//
Structure Smiles: COc1c(C)cc(-c2cn3c(=O)n(-c4ccccc4)nc3c(N)n2)cc1C
Measured Attribute: Ki
Measured Number: 0.17
//
Structure Smiles: N#CCOc1ccc(-c2cn3c(=O)n(-c4ccccc4)nc3c(N)n2)cc1
Measured Attribute: Ki
Measured Number: 8.2

----------
The following compounds are shown together with reported pKi values.
Target: UniProt:P0DMS8
Sequence (P0DMS8 whole entry): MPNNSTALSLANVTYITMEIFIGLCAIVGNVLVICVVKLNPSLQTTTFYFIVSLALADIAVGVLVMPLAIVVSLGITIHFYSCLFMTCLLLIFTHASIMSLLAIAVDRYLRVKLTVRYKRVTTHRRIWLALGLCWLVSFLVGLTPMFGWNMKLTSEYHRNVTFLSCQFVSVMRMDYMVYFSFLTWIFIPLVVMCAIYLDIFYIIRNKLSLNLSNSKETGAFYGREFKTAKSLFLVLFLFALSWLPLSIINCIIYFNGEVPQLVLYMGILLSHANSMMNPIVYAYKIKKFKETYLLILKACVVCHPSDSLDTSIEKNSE
pKi: −log10 of the molar value.

Compound: Nc1nc(-c2ccc(OCCNC(=O)CCCCC3CCSS3)cc2)cn2c(=O)n(-c3ccccc3)nc12 (stereo not drawn)
Qualifier Operator: =
pKi: 5.39

Compound: CC(C)(C)c1cc(C(=O)NCCC(=O)Nc2ccc(-c3cn4c(=O)n(-c5ccccc5)nc4c(N)n3)cc2)cc(C(C)(C)C)c1O
Qualifier Operator: <
pKi: 4.52

Compound: Cc1cc(-c2cn3c(=O)n(-c4ccccc4)nc3c(N)n2)cc(C)c1O
Qualifier Operator: =
pKi: 7.00

----------
Molecular target: Adenosine receptor A2a (Homo sapiens, UniProt P29274)
Experiment: Antagonist activity at human adenosine A2A receptor expressed in CHO cells assessed as inhibition of NECA-stimulated adenylyl cyclase activity by Glo-sensor cAMP assay
pIC50: −log10 of the molar value.

Compound: CC(C)(C)c1cc(-c2cn3c(=O)n(-c4ccccc4)nc3c(N)n2)ccc1O
pIC50: 6.75
--
Compound: Nc1nc(-c2ccc(NC(=O)CCNC(=O)CCCCC3CCSS3)cc2)cn2c(=O)n(-c3ccccc3)nc12 (stereo not given)
pIC50: 6.53
--
Compound: Nc1nc(-c2ccc(OCCNC(=O)CCCCC3CCSS3)cc2)cn2c(=O)n(-c3ccccc3)nc12 (stereo not given)
pIC50: 6.94
--
Compound: N#CCOc1ccc(-c2cn3c(=O)n(-c4ccccc4)nc3c(N)n2)cc1
pIC50: 6.80
--
Compound: CC(C)(C)c1cc(C(=O)NCCC(=O)Nc2ccc(-c3cn4c(=O)n(-c5ccccc5)nc4c(N)n3)cc2)cc(C(C)(C)C)c1O
pIC50: 6.58

----------
# pKi annotations
Target: Adenosine receptor A2a (Homo sapiens)
pKi: −log10 of the molar value.
Measured Attribute: pKi

Molecule: COc1ccc(-c2cn3c(=O)n(-c4ccccc4)nc3c(N)n2)cc1OC
Measured Number: 8.24
//
Molecule: NCCOc1ccc(-c2cn3c(=O)n(-c4ccccc4)nc3c(N)n2)cc1
Measured Number: 7.83
//
Molecule: C=CC(=O)Nc1ccc(-c2cn3c(=O)n(-c4ccccc4)nc3c(N)n2)cc1
Measured Number: 8.74
//
Molecule: Nc1nc(-c2cc(O)c(O)c(O)c2)cn2c(=O)n(-c3ccccc3)nc12
Measured Number: 7.02
//
Molecule: NC(=O)COc1ccc(-c2cn3c(=O)n(-c4ccccc4)nc3c(N)n2)cc1
Measured Number: 7.59
//
Molecule: COc1cc(O)ccc1-c1cn2c(=O)n(-c3ccccc3)nc2c(N)n1
Measured Number: 7.77
//
Molecule: CC(C)(C)c1cc(C(=O)NCCC(=O)Nc2ccc(-c3cn4c(=O)n(-c5ccccc5)nc4c(N)n3)cc2)cc(C(C)(C)C)c1O
Measured Number: 7.26
//
Molecule: Nc1nc(-c2ccc(OCCNC(=O)CCCCC3CCSS3)cc2)cn2c(=O)n(-c3ccccc3)nc12 (centres undefined)
Measured Number: 8.62
//
Molecule: Nc1nc(-c2ccc(NC(=O)CCCCC3CCSS3)cc2)cn2c(=O)n(-c3ccccc3)nc12 (centres undefined)
Measured Number: 8.30

----------
Target: Adenosine receptor A1 (Homo sapiens, UniProt P30542)
Sequence (P30542 whole entry): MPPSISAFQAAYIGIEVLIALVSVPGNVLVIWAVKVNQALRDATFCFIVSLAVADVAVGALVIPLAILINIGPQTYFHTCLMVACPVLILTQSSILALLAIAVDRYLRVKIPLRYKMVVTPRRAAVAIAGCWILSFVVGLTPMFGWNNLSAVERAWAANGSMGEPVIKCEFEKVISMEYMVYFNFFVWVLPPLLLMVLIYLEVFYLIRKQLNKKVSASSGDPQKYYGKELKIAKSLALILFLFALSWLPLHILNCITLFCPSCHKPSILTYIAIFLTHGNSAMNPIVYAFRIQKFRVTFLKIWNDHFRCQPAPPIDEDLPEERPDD

Compound: CC(C)(C)c1cc(C(=O)NCCOc2ccc(-c3cn4c(=O)n(-c5ccccc5)nc4c(N)n3)cc2)cc(C(C)(C)C)c1O
Ki, nM: 13700
//
Compound: Nc1nc(-c2ccc(OCCNC(=O)CCCCC3CCSS3)cc2)cn2c(=O)n(-c3ccccc3)nc12 (stereo unspecified)
Ki, nM: 379
//
Compound: Nc1ccc(-c2cn3c(=O)n(-c4ccccc4)nc3c(N)n2)cc1
Ki, nM: 33.5
//
Compound: COc1ccc(-c2cn3c(=O)n(-c4ccccc4)nc3c(N)n2)cc1OC
Ki, nM: 59
//
Compound: Nc1nc(-c2cc(O)c(O)c(O)c2)cn2c(=O)n(-c3ccccc3)nc12
Ki, nM: 176
//
Compound: Nc1nc(-c2ccc(NC(=O)CCNC(=O)CCCCC3CCSS3)cc2)cn2c(=O)n(-c3ccccc3)nc12 (stereo unspecified)
Ki, nM: 1360
//
Compound: NC(=O)COc1ccc(-c2cn3c(=O)n(-c4ccccc4)nc3c(N)n2)cc1
Ki, nM: 392
//
Compound: Nc1nc(-c2ccc3c(c2)OCO3)cn2c(=O)n(-c3ccccc3)nc12
Ki, nM: 13
//
Compound: Cc1cc(-c2cn3c(=O)n(-c4ccccc4)nc3c(N)n2)cc(C)c1O
Ki, nM: 21.3
//
Compound: COc1cc(O)ccc1-c1cn2c(=O)n(-c3ccccc3)nc2c(N)n1
Ki, nM: 29.7
//
Compound: COc1c(C(C)(C)C)cc(-c2cn3c(=O)n(-c4ccccc4)nc3c(N)n2)cc1C(C)(C)C
Ki, nM: 108
